tested on: Trypanosoma cruzi; test: Trypanosoma cruzi phosphomannomutase and mannose-1-phosphate guanylyltransferase assay; format: functional; parameters: scale not given: direction of the effect not stated beside the values; conditions: 10 µM
measured_attribute: Percent Effect (%)
Reply with just the number (in %).

Give the reported Percent Effect for Cc1ccccc1N1CC2(CCN(S(=O)(=O)C3CC3)C2)CC1=O (centres undefined) (system: Trypanosoma cruzi). -5.07

Let us now turn to CN(CC(=O)N1CCCC1Cn1cccn1)c1cnccn1 (centres undefined) -1.6

Let us now turn to CC(C(=O)N1CCCN(c2ncccc2C#N)CC1)n1ccnc1 (centres undefined) 5.13

Let us now turn to COc1ccc(OCCc2sc(C3(O)CCCNCC3)nc2C)cc1 (centres undefined) 0.198

Let us now turn to Cc1ccc(C)c(CNC(=O)NC(C)(C(=O)O)c2ccco2)c1 (centres undefined) 8.12

Let us now turn to CCNC(=O)c1cnc(Cc2ccc(F)cc2)s1 -1.27

Let us now turn to CCCn1nc2c(cc1=O)CN(CC(=O)Nc1ccncc1)CC2 -3.17

Let us now turn to Cc1cc(C(=O)NCc2ccc(N3CCCC(C(N)=O)C3)cc2)[nH]n1 (centres undefined) -3.21

Let us now turn to Cn1cc(C2COC3(CCN(C(=O)Cn4cccn4)CC3)C2)cn1 (centres undefined) 2.25

Let us now turn to Cc1cc(C)n(CC(=O)N(C)Cc2csc(-c3cccs3)n2)c(=O)n1 1.66

Let us now turn to Cc1nn(-c2ccccc2)c2c1C(c1ccc(C(=O)O)cc1)CC(=O)N2 (centres undefined) 6.33

Let us now turn to CN1C(=O)C(C)(C)COc2cc(NS(=O)(=O)Cc3ccccc3)ccc21 3.72

Let us now turn to COc1ccc(C2Nc3cc(Cl)ccc3C3=NCCN32)cc1OC (centres undefined) 3.54

Let us now turn to Cc1ncnc2c1CCN(Cc1ccc3c(c1)OCO3)CC2 3.97

Let us now turn to CSc1ccc(-c2nc(CN3CCC(NC(C)=O)C3)c(C)o2)cc1 (centres undefined) -4.25

Let us now turn to Cc1cnc2n1CCN(C)C21CCN(C(=O)CC(C)C)CC1 -5.21

Let us now turn to O=C(O)c1csc(S(=O)(=O)N2CCCc3ccc(F)cc32)c1 0.682

Let us now turn to CCN(C(=O)c1ccc(-n2ncc(C#N)c2N)cc1)C1CCCC1 -0.187

Let us now turn to COc1cc(C(=O)Nc2c(C)noc2C)ccc1C 3.87

Cited source: ChEMBL document CHEMBL3988442
